Values from patent US10519154B2

target: human M2 receptor (Homo sapiens); test: Functional M2-GIRK1/4 activation test: allosteric potency (EC50) and efficiency; conditions: Receptor activity EC50, CHO-DUKX-M2-GIRK cells; acetylcholine at EC20; in some cases mean of two or more determinations
pEC50: −log10 of the molar value.
Metric Name: pEC50

Molecule	pEC50
O=C(NC(C1CC1)C(F)(F)F)c1cn(-c2ncc(F)cc2F)c2nc(N3C[C@@H](O)[C@@H](O)C3)ccc2c1=O (stereo partly drawn)	6.77

(A) O=C(NC(c1ccccc1Cl)C(F)(F)F)c1cn(-c2ncc(F)cc2F)c2nc(N3C[C@@H](O)[C@H](O)C3)ccc2c1=O (single isomer, unassigned) [Example 85]
(B) O=C(NC(C1CC1)C(F)(F)F)c1cn(-c2ncc(F)cc2F)c2nc(N3CC[C@@H](O)C3=O)ccc2c1=O (stereo partly drawn)
(C) CCC(NC(=O)c1cn(-c2ncc(F)cc2F)c2nc(N3C[C@@H](O)CC3=O)ccc2c1=O)C(F)(F)C(F)(F)F (single isomer, unassigned) [Example 94]
(D) CC[C@H](NC(=O)c1cn(-c2c(F)cncc2F)c2nc(N3CCNC3=O)ccc2c1=O)C(F)(F)F
**Q:** Hey, quick one: sort these by pEC50, largest value first please. # output: labels, in the requested order
**A:** C, A, B, D

###

Molecular target: human M2 receptor (Homo sapiens, UniProt P08172)
Sequence (P08172 1-466): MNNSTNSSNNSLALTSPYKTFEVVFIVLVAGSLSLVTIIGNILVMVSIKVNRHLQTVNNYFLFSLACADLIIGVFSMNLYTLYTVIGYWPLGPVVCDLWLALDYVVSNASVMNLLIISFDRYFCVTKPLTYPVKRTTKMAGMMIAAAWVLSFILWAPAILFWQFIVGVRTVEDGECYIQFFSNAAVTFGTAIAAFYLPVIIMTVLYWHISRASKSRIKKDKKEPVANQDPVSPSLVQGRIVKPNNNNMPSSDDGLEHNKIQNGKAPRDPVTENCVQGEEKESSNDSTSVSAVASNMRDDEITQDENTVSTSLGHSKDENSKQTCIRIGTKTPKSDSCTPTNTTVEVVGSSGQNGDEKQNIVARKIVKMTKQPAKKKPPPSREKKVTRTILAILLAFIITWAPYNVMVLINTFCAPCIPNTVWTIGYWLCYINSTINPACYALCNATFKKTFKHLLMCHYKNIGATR
Experiment: Functional M2-GIRK1/4 activation test: allosteric potency (EC50) and efficiency
Details: read-out: Efficiency, boosting of the acetylcholine effect at EC20 acetylcholine concentration; CHO-DUKX-M2-GIRK cells
Metric Name: Emax (%)

>>> print(df.to_string())
                                   compound  test_result
0  O=C(NC1CCC1)c1cn(-c2ncc(F)cc2F)c2nc(N3C[C@@H](O)[C@H](O)C3)ccc2c1=O [Example 168]         84.5
1  O=C(NC(C(F)(F)F)C(F)(F)F)c1cn(-c2ncc(F)cc2F)c2nc(N3CCC(O)(CO)CC3)ccc2c1=O [Example 179]          100
2  CC[C@H](NC(=O)c1cn(-c2c(F)cncc2F)c2nc(N3C[C@@H](O)[C@H](O)C3)ccc2c1=O)C(F)(F)F [Example 118]          100
3  CC[C@H](NC(=O)c1cn(-c2ncc(F)cc2F)c2nc(N3CC[C@H](F)C3)ccc2c1=O)C(F)(F)F [Example 129]         96.5
4  O=C(NC(C(F)(F)F)C(F)(F)F)c1cn(-c2ncc(F)cc2F)c2nc(N3C[C@@H](O)[C@@H](O)C3)ccc2c1=O [Example 55]          100
5  O=C(Nc1c(Cl)cccc1Cl)c1cn(-c2ncc(F)cc2F)c2nc(N3C[C@@H](O)CC3=O)ccc2c1=O [Example 16]           99
6  CC[C@@H](NC(=O)c1cn(-c2ncc(F)cc2Cl)c2nc(N3CCC(C)(O)C3)ccc2c1=O)C(F)(F)F (mixture of isomers) [Example 49]           97

###

molecular target: human M2 receptor (Homo sapiens, UniProt P08172); test: Functional M2-GIRK1/4 activation test: allosteric potency (EC50) and efficiency; settings: read-out: Efficiency, boosting of the acetylcholine effect at EC20 acetylcholine concentration; CHO-DUKX-M2-GIRK cells
Metric Name: Emax (%)

>>> df
                                   molecule  metric_name  test_result
0  CCC(COC(F)(F)F)NC(=O)c1cn(-c2ncc(F)cc2F)c2nc(N3C[C@@H](O)CC3=O)ccc2c1=O (mixture of isomers) [Example 17]         Emax           88
1  CC(C)(C)[C@@H](NC(=O)c1cn(-c2ncc(F)cc2F)c2nc(N3CCCN(CCO)C3=O)ccc2c1=O)C(F)(F)F         Emax           96
2  O=C(NC1(C(F)(F)F)CCCC1)c1cn(-c2ncc(F)cc2F)c2nc(N3C[C@@H](O)CC3=O)ccc2c1=O         Emax          100
3  O=C(N[C@H](C1CC1)C(F)(F)F)c1cn(-c2ncc(F)cc2F)c2nc(N3C[C@@H](O)CC3=O)ccc2c1=O         Emax         98.5
4  CC[C@@H](NC(=O)c1cn(-c2ncc(F)cc2F)c2nc(N3CCOCC3)ccc2c1=O)C(F)(F)F         Emax         97.5
5  CC(C)(CC(F)(F)F)NC(=O)c1cn(-c2ncc(F)cc2F)c2nc(N3CCNC3=O)ccc2c1=O         Emax         98.5
6  CC[C@H](NC(=O)c1cn(-c2ncc(F)cc2F)c2nc(N(C)C)ccc2c1=O)C(F)(F)F         Emax           93

###

biological target: human M2 receptor (Homo sapiens); assay: Functional M2-GIRK1/4 activation test: allosteric potency (EC50) and efficiency; conditions: boosting of the acetylcholine effect at EC20 acetylcholine concentration; CHO-DUKX-M2-GIRK cells
Metric Name: Efficiency (%)

In [3]: df
Out[3]:
                                   molecule  test_result
0  CC(NC(=O)c1cn(-c2ncc(F)cc2F)c2nc(N3C[C@@H](O)CC3=O)ccc2c1=O)C(F)(F)C(F)(F)F (single isomer, unassigned)        91.50
1  CC1C(=O)N(c2ccc3c(=O)c(C(=O)N[C@@H](C4CC4)C(F)(F)F)cn(-c4ncc(F)cc4F)c3n2)CC1O (single isomer, unassigned) [Example 106]        91.50
2  O=C(NC(c1ccccc1Cl)C(F)(F)F)c1cn(-c2ncc(F)cc2F)c2nc(N3CCNC3=O)ccc2c1=O (single isomer, unassigned)       100.00
3  CC(NC(=O)c1cn(-c2ncc(F)cc2F)c2nc(N3C[C@@H](O)[C@H](O)C3)ccc2c1=O)C(F)(F)C(F)(F)F (single isomer, unassigned)       100.00
4  CC1CC(=O)N(c2ccc3c(=O)c(C(=O)N[C@H](C4CC4)C(F)(F)F)cn(-c4ncc(F)cc4F)c3n2)C1 (single isomer, unassigned)        98.00
5  O=C(NC(c1ccccc1Cl)C(F)(F)F)c1cn(-c2ncc(F)cc2F)c2nc(N3C[C@@H](O)CC3=O)ccc2c1=O (single isomer, unassigned)        98.25
6  O=C(NC(C(F)(F)F)C(F)(F)F)c1cn(-c2ncc(F)cc2F)c2nc(N3CC4CC4(O)C3)ccc2c1=O (single isomer, unassigned)        99.00
7  CC[C@H](NC(=O)c1cn(-c2ncc(F)cc2F)c2nc(N3CC(O)C(C)C3=O)ccc2c1=O)C(F)(F)F (single isomer, unassigned) [Example 110]        94.50
8  O=C(N[C@H](C1CC1)C(F)(F)F)c1cn(-c2ncc(F)cc2F)c2nc(N3CC4CC4(O)C3)ccc2c1=O (single isomer, unassigned)        99.00
9  CC[C@@H](NC(=O)c1cn(-c2ncc(F)cc2F)c2nc(N3CC4CC4(O)C3)ccc2c1=O)C(F)(F)F (single isomer, unassigned)        96.00

###

target: human M2 receptor (Homo sapiens); test: Functional M2-GIRK1/4 activation test: allosteric potency (EC50) and efficiency; settings: Receptor activity EC50, CHO-DUKX-M2-GIRK cells; acetylcholine at EC20; in some cases mean of two or more determinations
Metric Name: EC50 (nM)

Would you please look over these solved cases?
Molecule	Metric Name	Test Result
CC[C@H](NC(=O)c1cn(-c2ncc(F)cc2F)c2nc(N3CC[C@H](F)C3)ccc2c1=O)C(F)(F)F	EC50	21
CC(CF)(CF)NC(=O)c1cn(-c2ncc(F)cc2F)c2nc(N3C[C@@H](O)[C@H](O)C3)ccc2c1=O	EC50	305
CC[C@@H](NC(=O)c1cn(-c2ncc(F)cc2F)c2nc(NCC(F)F)ccc2c1=O)C(F)(F)F	EC50	220
O=C(NC(C(F)(F)F)C(F)(F)F)c1cn(-c2ncc(F)cc2F)c2nc(N3CCC(O)(CO)CC3)ccc2c1=O	EC50	95

(A) O=C(NC1CCC1)c1cn(-c2ncc(F)cc2F)c2nc(N3CCNC3=O)ccc2c1=O
(B) O=C(NC(c1ccc(Cl)cc1)C(F)(F)F)c1cn(-c2ncc(F)cc2F)c2nc(N3C[C@@H](O)CC3=O)ccc2c1=O (stereo partly shown)
**Q:** In the pair A and B , the larger recorded EC50 belongs to which? Indicate your choice by writing its label.
**A:** A
(A: 910 nM, B: 83 nM)
